ASSAY_TEXT: self-splicing fitness, log relative to wild type (ln ratio); higher = more splicing; Tetrahymena group I intron in knt gene, E. coli kanamycin selection, DiMSum; sequences stand for … in CUCUCU…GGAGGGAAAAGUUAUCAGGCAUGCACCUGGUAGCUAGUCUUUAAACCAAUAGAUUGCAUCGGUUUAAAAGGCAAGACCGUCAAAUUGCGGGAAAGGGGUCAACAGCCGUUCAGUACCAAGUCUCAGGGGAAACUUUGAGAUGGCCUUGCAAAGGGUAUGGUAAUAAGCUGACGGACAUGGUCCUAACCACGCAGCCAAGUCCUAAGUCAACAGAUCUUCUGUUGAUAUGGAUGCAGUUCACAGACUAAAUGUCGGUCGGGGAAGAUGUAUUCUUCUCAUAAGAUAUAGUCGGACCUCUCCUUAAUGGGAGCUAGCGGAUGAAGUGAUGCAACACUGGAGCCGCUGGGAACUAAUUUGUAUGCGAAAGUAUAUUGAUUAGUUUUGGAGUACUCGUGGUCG;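 further: selection with 25 µg/mL kanamycin versus none on LB agar overnight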
STATED_CONDITIONS: 37 °C
PROPERTY_LABEL: self-splicing fitness (ln)
# respond with the number and nothing more

sequence_code=AAUAAGCAAUAUUACGAGAU observed_result=-2.24
sequence_code=AACAAGCAAUAUUACGUUUA observed_result=-1.07

Need self-splicing fitness (ln), item `GAGAAGCAAUAUUACGCUUC`
-2.89

Need self-splicing fitness (ln), item `CAGAAGCAAUAUUACGCUAU`
-3.04

Need self-splicing fitness (ln), item `UAAUAGCAAUAUUACGCGCA`
0.129

Need self-splicing fitness (ln), item `AAACAGCAAUAUUACGACGC`
-0.718

Need self-splicing fitness (ln), item `AGGUAGCAAUAUUACGGGCU`
-0.848

Need self-splicing fitness (ln), item `CCGGAGCAAUAUUACGAACG`
0.0318

----------
ASSAY_TEXT: self-splicing fitness, log relative to wild type (ln ratio); higher = more splicing; Tetrahymena group I intron in knt gene, E. coli kanamycin selection, DiMSum; sequences stand for … in CUCUCU…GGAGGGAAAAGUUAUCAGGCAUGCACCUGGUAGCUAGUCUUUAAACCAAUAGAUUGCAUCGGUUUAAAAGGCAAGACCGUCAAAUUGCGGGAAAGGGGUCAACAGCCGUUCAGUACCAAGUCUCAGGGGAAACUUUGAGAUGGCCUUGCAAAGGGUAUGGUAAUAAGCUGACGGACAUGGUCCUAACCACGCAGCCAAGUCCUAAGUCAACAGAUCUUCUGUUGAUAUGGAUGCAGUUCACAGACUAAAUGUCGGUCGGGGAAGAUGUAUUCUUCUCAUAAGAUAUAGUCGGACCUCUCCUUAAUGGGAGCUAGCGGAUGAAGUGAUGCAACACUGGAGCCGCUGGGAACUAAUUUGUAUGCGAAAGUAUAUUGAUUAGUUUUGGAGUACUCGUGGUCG
STATED_CONDITIONS: 30 °C
PROPERTY_LABEL: self-splicing fitness (ln)
# respond with the number and nothing more

In the examples that follow, each entry is paired with its recorded self-splicing fitness (ln).
sequence_code=CAUAAGCAAUAUUACGUAGA property_label="self-splicing fitness (ln)" observed_result=-3.68
sequence_code=AUGCAGCAAUAUUACGCGCC property_label="self-splicing fitness (ln)" observed_result=-0.788
sequence_code=UUUUAGCAAUAUUACGUCAA property_label="self-splicing fitness (ln)" observed_result=-2.59

Need self-splicing fitness (ln), item `CCGUAGCAAUAUUACGUCGG`
-3.57

Need self-splicing fitness (ln), item `GAUAAGCAAUAUUACGGUCG`
-0.842

Need self-splicing fitness (ln), item `CCCUAGCAAUAUUACGGGGC`
-3.47

----------
ASSAY_TEXT: self-splicing fitness, log relative to wild type (ln ratio); higher = more splicing; Tetrahymena group I intron in knt gene, E. coli kanamycin selection, DiMSum; sequences stand for … in CUCUCU…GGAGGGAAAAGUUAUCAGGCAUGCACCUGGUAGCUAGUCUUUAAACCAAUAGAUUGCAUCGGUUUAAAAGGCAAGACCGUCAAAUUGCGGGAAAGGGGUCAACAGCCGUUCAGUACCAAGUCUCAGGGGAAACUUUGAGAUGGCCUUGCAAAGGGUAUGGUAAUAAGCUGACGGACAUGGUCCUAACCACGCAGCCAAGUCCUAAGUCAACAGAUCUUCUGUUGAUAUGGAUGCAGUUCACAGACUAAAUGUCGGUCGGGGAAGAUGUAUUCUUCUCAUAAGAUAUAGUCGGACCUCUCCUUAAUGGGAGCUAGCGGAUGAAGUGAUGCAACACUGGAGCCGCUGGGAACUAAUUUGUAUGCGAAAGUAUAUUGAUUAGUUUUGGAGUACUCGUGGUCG
STATED_CONDITIONS: 37 °C
Use rule met when the recorded self-splicing fitness (ln) is no lower than -1; use rule not met when it is lower.

Answered examples (3):
sequence_code=CUAGAGCAAUAUUACGAGCA answer_label="rule not met"
sequence_code=GUGCAGCAAUAUUACGCUUG answer_label="rule not met"
sequence_code=CCAUAGCAAUAUUACGACGC answer_label="rule not met"

Could you please find out whether `CCCCAGCAAUAUUACGAGUA` has self-splicing fitness (ln) that meets -1 or exceeds it?
rule not met

Could you please find out whether `AGCGAGCAAUAUUACGAUCC` has self-splicing fitness (ln) that meets -1 or exceeds it?
rule met

Could you please find out whether `GCAUAGCAAUAUUACGGUCU` has self-splicing fitness (ln) that meets -1 or exceeds it?
rule met

Could you please find out whether `GCUGAGCAAUAUUACGUACU` has self-splicing fitness (ln) that meets -1 or exceeds it?
rule not met

----------
ASSAY_TEXT: self-splicing fitness, log relative to wild type (ln ratio); higher = more splicing; Tetrahymena group I intron in knt gene, E. coli kanamycin selection, DiMSum; sequences stand for … in CUCUCU…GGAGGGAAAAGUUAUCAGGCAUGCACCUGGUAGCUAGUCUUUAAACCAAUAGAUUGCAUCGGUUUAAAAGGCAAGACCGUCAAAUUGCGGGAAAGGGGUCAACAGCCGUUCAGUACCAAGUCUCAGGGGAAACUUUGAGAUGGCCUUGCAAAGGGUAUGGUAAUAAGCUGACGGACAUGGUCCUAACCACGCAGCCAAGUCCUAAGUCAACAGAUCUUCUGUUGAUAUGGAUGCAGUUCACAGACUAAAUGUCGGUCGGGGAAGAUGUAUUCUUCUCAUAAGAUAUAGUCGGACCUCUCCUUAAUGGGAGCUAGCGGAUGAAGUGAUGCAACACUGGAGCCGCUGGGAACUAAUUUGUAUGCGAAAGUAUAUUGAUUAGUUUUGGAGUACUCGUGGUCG
STATED_CONDITIONS: 37 °C
Category | rule: reported self-splicing fitness (ln) within range, see bin A: < -2; bin B: ≥ -2 and < -1; bin C: ≥ -1

Answered examples (6):
sequence_code=CAUCAGCAAUAUUACGAUUA answer_label="bin C"
sequence_code=AAUGAGCAAUAUUACGUGUU answer_label="bin A"
sequence_code=GCCUAGCAAUAUUACGCGAC answer_label="bin B"
sequence_code=CAUAAGCAAUAUUACGACCU answer_label="bin B"
sequence_code=UGCUAGCAAUAUUACGAUUC answer_label="bin A"
sequence_code=ACCAAGCAAUAUUACGUACC answer_label="bin B"

Now for a further sequence.
Hello team, could you let me know which band the following sequence falls into: `CACAAGCAAUAUUACGCUCA`
bin C

----------
ASSAY_TEXT: self-splicing fitness, log relative to wild type (ln ratio); higher = more splicing; Tetrahymena group I intron in knt gene, E. coli kanamycin selection, DiMSum; sequences stand for … in CUCUCU…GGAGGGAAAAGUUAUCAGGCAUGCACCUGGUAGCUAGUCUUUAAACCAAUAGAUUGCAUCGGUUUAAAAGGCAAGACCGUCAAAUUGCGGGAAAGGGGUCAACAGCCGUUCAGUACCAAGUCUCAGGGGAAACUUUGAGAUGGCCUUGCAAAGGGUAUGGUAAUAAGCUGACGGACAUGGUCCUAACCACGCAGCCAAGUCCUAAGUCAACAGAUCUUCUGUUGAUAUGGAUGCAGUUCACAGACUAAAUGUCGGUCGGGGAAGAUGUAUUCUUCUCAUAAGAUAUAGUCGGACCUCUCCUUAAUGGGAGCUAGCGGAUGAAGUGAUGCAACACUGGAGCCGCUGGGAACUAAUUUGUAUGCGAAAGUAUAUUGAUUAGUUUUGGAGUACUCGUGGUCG
STATED_CONDITIONS: 30 °C
Each entry below lists one item and its recorded self-splicing fitness (ln) value.
# respond with the number and nothing more

sequence_code=CCACAGCAAUAUUACGUCAA observed_result=-2.92
sequence_code=AUCUAGCAAUAUUACGGAAC observed_result=-4.03

Need self-splicing fitness (ln), item `UAGGAGCAAUAUUACGGAGG`
-4.35

Need self-splicing fitness (ln), item `CAAAAGCAAUAUUACGGACA`
-2.21

Need self-splicing fitness (ln), item `GAAAAGCAAUAUUACGCACA`
-0.807

Need self-splicing fitness (ln), item `UAGCAGCAAUAUUACGUAAU`
-3.27

Need self-splicing fitness (ln), item `CAGGAGCAAUAUUACGUGGA`
-3.47

Need self-splicing fitness (ln), item `CAUCAGCAAUAUUACGUGAU`
-2.78

Need self-splicing fitness (ln), item `CUUGAGCAAUAUUACGUUAU`
-3.45

Need self-splicing fitness (ln), item `AAAGAGCAAUAUUACGAGGG`
-3.04

Need self-splicing fitness (ln), item `GGUGAGCAAUAUUACGAGAC`
-2.82

Need self-splicing fitness (ln), item `GGGCAGCAAUAUUACGGCUG`
-2.27

Need self-splicing fitness (ln), item `CCCUAGCAAUAUUACGACUC`
-4.18

Need self-splicing fitness (ln), item `AAAGAGCAAUAUUACGACGG`
-3.27

Need self-splicing fitness (ln), item `AUGGAGCAAUAUUACGGUAG`
-3.61

Need self-splicing fitness (ln), item `CUAGAGCAAUAUUACGGGGG`
-2.64

Need self-splicing fitness (ln), item `AAACAGCAAUAUUACGAUAG`
-2.76

Need self-splicing fitness (ln), item `GUUAAGCAAUAUUACGCGGU`
-3.3
